Assay: ATG_TA_CIS: Attagene CIS-FACTORIAL HepG2 Assay for human TA Basal Promoter (AID 2282964)
Conditions: HepG2 Attagene CIS-factorial TA basal promoter reporter; actives raise or lower the signal
Description: ATG_CIS is a cell-based, multiplexed-readout assay that uses HepG2, a human liver cell line, with measurements taken at 24 hours after chemical dosing in a 24-well plate.ATG_TA_CIS is one of 52 assay component(s) measured or calculated from the ATG_CIS assay. […] This assay endpoint, ATG_TA_CIS, was analyzed with bidirectional fitting relative to DMSO as the negative control and baseline of activity. […]
The source made the active and inactive calls. Rule for the calls: active = hit-call score of the fitted dose curve at least 0.9, where 1 is the maximum; inactive = score below 0.9. Peptide text beside a SMILES is read from it.
Log the outcome using a class from active, inactive

Solved entries (count: 5):
INSERT INTO measurements (compound, cat) VALUES
  ('COC(=O)[C@H](Cc1ccccc1)NC(=O)[C@@H](N)CC(=O)O (H-Asp-Phe-OMe)', 'inactive'),
  ('CCOC(=O)/C=C\C(=O)OCC', 'inactive'),
  ('CCCCCCCCCCCCCC(=O)OC(C)C', 'inactive'),
  ('Cc1ccccc1CCO', 'inactive'),
  ('CC1C(C)(C)C2=C(C(=O)CCC2)C1(C)C (centres undefined)', 'inactive');

Q: Can you look up the reported call for CC(CCC(=O)O)(c1ccc(O)cc1)c1ccc(O)cc1 for me?
Result: inactive

Q: Can you look up the reported call for CC(Cl)COP(=O)(OCC(C)Cl)OCC(C)Cl (centres undefined) for me?
Result: inactive

Q: Can you look up the reported call for CC(C)c1ccc(O)c(C(C)C)c1 for me?
Result: inactive

----------
read-out: Interleukin-1 alpha (IL1a), IL1A (gene 3552); test: BSK_BE3C_IL1a: BioMAP Diversity Plus: BE3C Assay for Interleukin-1 alpha (IL1a) Biomarker Activity (AID 2283016); conditions: primary human bronchial epithelial cells; actives raise or lower the signal
The source made the active and inactive calls. The calls were made as follows: active = hit-call score of the fitted dose curve at least 0.9, where 1 is the maximum; inactive = score below 0.9.
Log the outcome using a class from active, inactive

Solved entries (count: 5):
INSERT INTO measurements (molecule, cat) VALUES
  ('CCCCCCCO', 'inactive'),
  ('CC1(C)CC(O)CC(C)(C)N1[O]', 'inactive'),
  ('c1ccc2sc(SSN3CCOCC3)nc2c1', 'inactive'),
  ('CC(C)[N+](C)(CCOC(=O)C1c2ccccc2Oc2ccccc21)C(C)C', 'inactive'),
  ('CC(Cl)COP(=O)(OCC(C)Cl)OCC(C)Cl (stereo unspecified)', 'inactive');

Now examine the next entry.
Q: Can you look up the reported call for Oc1ccc(/C=C/c2cc(O)cc(O)c2)cc1 for me?
Result: active

----------
experiment: ATG_RORE_CIS: Attagene CIS-FACTORIAL HepG2 Assay for human RAR-related Orphan Receptor Element (RORE) (AID 2282959); conditions: HepG2 Attagene cis-factorial RORE reporter, mRNA; actives raise or lower the signal
Calls of active or inactive are those of the source. The calls were made as follows: active = hit-call score of the fitted dose curve at least 0.9, where 1 is the maximum; inactive = score below 0.9.
Log the outcome using a class from active, inactive

INSERT INTO assay_data (molecule, cat) VALUES
  ('CCCCOCCOCCOC(C)=O', 'inactive'),
  ('CC(C)CCCCCOC(=O)CS', 'inactive'),
  ('C=CC(=O)OCC(C)OCC(C)OCC(C)OC(=O)C=C (stereo unspecified)', 'active'),
  ('CC(C)COC(=O)CC(C(=O)OCC(C)C)S(=O)(=O)O (stereo unspecified)', 'inactive'),
  ('CC(C)(O)Cc1ccccc1', 'inactive'),
  ('O=C(Nc1ccccc1)c1cc(Cl)ccc1O', 'active'),
  ('Fc1ccc(Br)cc1', 'inactive'),
  ('O=C(Oc1ccccc1)c1ccccc1C(=O)Oc1ccccc1', 'inactive'),
  ('Cn1cccc1', 'inactive'),
  ('CCCCCCCCCC(C)=O', 'inactive');

Now examine the next entry.
Q: Can you look up the reported call for CC(c1cc(C(C)(C)C)cc(C(C)(C)C)c1O)c1cc(C(C)(C)C)cc(C(C)(C)C)c1O for me?
Result: inactive
